This collection of values is drawn from patent US8637537B2.

System Name: human recombinant GST-PAK1-KD protein (Homo sapiens, UniProt Q13153)
Construct: residues #249-545 of human PAK1, UniProtKP/Swiss Q13153; His6 (N); made in house; host or cells: Sf9 insect cells, pAcGP67 baculovirus expression vector
Sequence (Q13153 249-545): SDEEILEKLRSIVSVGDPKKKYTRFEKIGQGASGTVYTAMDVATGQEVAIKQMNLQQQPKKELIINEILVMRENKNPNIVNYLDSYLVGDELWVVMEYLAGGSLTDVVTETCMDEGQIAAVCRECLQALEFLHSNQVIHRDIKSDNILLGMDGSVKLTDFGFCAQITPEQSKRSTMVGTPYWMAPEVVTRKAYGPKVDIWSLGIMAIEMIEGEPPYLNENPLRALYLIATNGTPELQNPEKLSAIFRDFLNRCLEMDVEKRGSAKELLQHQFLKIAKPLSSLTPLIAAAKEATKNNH
Assay Protocol: GST-PAK1-KD (kinase domain) biochemical assay, microfluidic mobility shift
Settings: Table I, PAK1 Ki class; read-out: Ki
Experimental: Activity of human recombinant GST-PAK1-KD protein was assessed in vitro assay by observing the phosphorylation of a fluorogenic peptide substrate. The peptide substrate is a consensus sequence based on various PAK1 substrates reported in the scientific literature. […] Incubations were carried out at 22° C. in MatriCal MP101 384-well Metriplates™. […]
Parameter: Ki

Molecule	Observed
Fc1cnc(NCc2cccc3[nH]ccc23)nc1Nc1cc(C2CC2)[nH]n1	0.05 to 0.25 µM
Cc1cc(Nc2cc(C3CC3)[nH]n2)nc(N[C@@H](C)c2ccc3[nH]cnc3c2)n1	0.05 to 0.25 µM
Cc1ccc2[nH]ccc2c1CNc1nccc(Nc2cc(C3CC3)[nH]n2)n1	0.05 to 0.25 µM
C[C@H](Nc1nccc(Nc2cc(C3CCCO3)[nH]n2)n1)c1ccc2[nH]cnc2c1 (some centres unmarked)	0.05 to 0.25 µM
FC1(F)C[C@@H]1c1cc(Nc2ccnc(NCc3ccc4[nH]cnc4c3Cl)n2)n[nH]1	< 0.05 µM

Q: Consider the molecule "F[C@@H]1C[C@H]1c1cc(Nc2ccnc(NCc3ccc4[nH]cnc4c3Cl)n2)n[nH]1" . State its measured Ki.
Result: < 0.05 µM

Q: Consider the molecule "Cc1cc(Nc2cc(C3CC3)[nH]n2)nc(N[C@@H](C)c2ccc3[nH]ccc3c2)n1" . State its measured Ki.
Result: < 0.05 µM

Q: Consider the molecule "Cn1ccc2cc(CNc3nccc(Nc4cc(C5CC5)[nH]n4)n3)ccc21" . State its measured Ki.
Result: 0.25 to 1 µM

---

System Name: human recombinant GST-PAK1-KD protein (Homo sapiens, UniProt Q13153)
Construct: residues #249-545 of human PAK1, UniProtKP/Swiss Q13153; His6 (N); made in house; host or cells: Sf9 insect cells, pAcGP67 baculovirus expression vector
Assay Protocol: GST-PAK1-KD (kinase domain) biochemical assay, microfluidic mobility shift
pKi: −log10 of the molar value.
Parameter: pKi

Sample records with pKi:
Molecule	pKi
c1cc(Nc2cc(C3CC3)[nH]n2)nc(NCc2ccc3[nH]ccc3c2)n1 [I-15]	> 7.30
Fc1c(CNc2nccc(Nc3cc(C4CC4)[nH]n3)n2)ccc2[nH]cnc12 [I-29]	6.00 to 6.60
CN(Cc1ccc2[nH]cnc2c1Cl)c1nccc(Nc2cc(C3CC3)[nH]n2)n1 [I-87]	> 7.30
c1cc(Nc2cc(C3CC3)[nH]n2)nc(NCc2ccc3[nH]cnc3c2)n1 [I-13]	> 7.30

Now for another entry.
Q: Consider the molecule COc1n[nH]c2cccc(CN(C)c3nccc(Nc4cc(C5CC5)[nH]n4)n3)c12 [II-30] . State its measured pKi.
Result: 6.60 to 7.30

---

System Name: human recombinant GST-PAK1-KD protein (Homo sapiens, UniProt Q13153)
Construct: residues #249-545 of human PAK1, UniProtKP/Swiss Q13153; His6 (N); made in house; host or cells: Sf9 insect cells, pAcGP67 baculovirus expression vector
Assay Protocol: GST-PAK1-KD (kinase domain) biochemical assay, microfluidic mobility shift
Settings: Table I, PAK1 Ki class; read-out: Ki
Description: Activity of human recombinant GST-PAK1-KD protein was assessed in vitro assay by observing the phosphorylation of a fluorogenic peptide substrate. The peptide substrate is a consensus sequence based on various PAK1 substrates reported in the scientific literature. […] Incubations were carried out at 22° C. in MatriCal MP101 384-well Metriplates™. […]
pKi: −log10 of the molar value.
Parameter: pKi

Sample records with pKi:
Line Notation	pKi
O=C(c1c[nH]c2cccc(CNc3nccc(Nc4cc(C5CC5)[nH]n4)n3)c12)C(F)(F)F	> 7.30
CC(C)c1cc(Nc2ccnc(NCc3cccc4[nH]ccc34)n2)n[nH]1	6.60 to 7.30
CC[C@H](Nc1ncc(F)c(Nc2cc(C3CC3)[nH]n2)n1)c1ccc2[nH]cnc2c1	6.60 to 7.30
C[C@H](Nc1nc(Nc2cc(C3CC3)[nH]n2)cc(C(C)(C)O)n1)c1ccc2[nH]ccc2c1	> 7.30

Q: Consider the compound "C[C@H](Nc1nccc(Nc2cc(C3CCCC3)[nH]n2)n1)c1ccc2[nH]ccc2c1" . State its measured pKi.
Result: > 7.30

Q: Consider the compound "C[C@H](Nc1nccc(Nc2cc([C@@H]3C[C@H]3F)[nH]n2)n1)c1ccc2[nH]ccc2c1" . State its measured pKi.
Result: > 7.30

Q: Consider the compound "CC(C)(Nc1nccc(Nc2cc(C3CC3)[nH]n2)n1)c1ccc2[nH]cnc2c1" . State its measured pKi.
Result: 6.60 to 7.30

Q: Consider the compound "c1cc(Nc2cc(C3CC3)[nH]n2)nc(NCc2ccc3[nH]ncc3c2)n1" . State its measured pKi.
Result: 6.00 to 6.60
